Cited source: ChEMBL document CHEMBL4837228

Test system: MCF7
Method Summary: Growth inhibition of human MCF7 cells for 48 hrs by sulforhodamine B assay
Format: functional
Overview of recorded GI50 for various compounds
Entry rule: numbers only, all in nM.

Chem Smiles	GI50 / nM
CC/C(C)=C(\NC(=O)[C@H](C)NC(=O)/C(NC(=O)[C@@H](NC(=O)C(C)(C)C(=O)[C@@H](C)CC(C)C)[C@](C)(O)CC)=C(/C)CC)C(=O)N[C@@H](C(=O)N[C@@H](C(=O)N[C@@H](C(=O)N[C@H](C(=O)N/C(C(=O)N[C@H](C)C(=O)N[C@@H](C(=O)N[C@H](C(=O)NC(C(=O)N[C@H](CN(C)C)C(C)C)=C(C)C)C(C)C)C(C)C)=C(/C)CC)C(C)(C)O)C(C)(C)O)[C@@H](C)CC)C(C)C	24.6

Next up:
Prompt: Output measured GI50 for this item: CC/C(C)=C(\NC(=O)[C@@H](NC(=O)[C@H](NC(=O)[C@H](NC(=O)[C@H](NC(=O)/C(NC(=O)[C@H](C)NC(=O)/C(NC(=O)[C@@H](NC(=O)C(C)(C)C(=O)[C@@H](C)CC(C)C)[C@](C)(O)CC)=C(\C)CC)=C(/C)CC)C(C)C)[C@@H](C)CC)C(C)(C)O)C(C)(C)O)C(=O)N[C@H](C)C(=O)N[C@@H](C(=O)N[C@H](C(=O)NC(C(=O)N[C@H](CN(C)C)C(C)C)=C(C)C)C(C)C)C(C)C
Completion: 18.2

* * *

Tested on: MCF7
Method Summary: Growth inhibition of human MCF7 cells for 48 hrs by sulforhodamine B assay
Type: functional
Overview of recorded GI50 for various compounds
Entry rule: numbers only, all in nM.

Study these solved cases before continuing.
Chem Smiles	GI50 / nM
CC/C(C)=C(\NC(=O)[C@@H](NC(=O)[C@H](NC(=O)[C@H](NC(=O)[C@H](NC(=O)/C(NC(=O)[C@H](C)NC(=O)/C(NC(=O)CNC(=O)C(C)(C)C(=O)[C@@H](C)CC(C)C)=C(/C)CC)=C(/C)CC)C(C)C)[C@@H](C)CC)C(C)(C)O)C(C)(C)O)C(=O)N[C@H](C)C(=O)N[C@@H](C(=O)N[C@H](C(=O)NC(C(=O)N[C@H](CN(C)C)C(C)C)=C(C)C)C(C)C)C(C)C	28.2
CC/C(C)=C(\NC(=O)CNC(=O)C(C)(C)C(=O)[C@@H](C)CC(C)C)C(=O)N[C@@H](C)C(=O)N/C(C(=O)N[C@@H](C(=O)N[C@@H](C(=O)N[C@@H](C(=O)N[C@H](C(=O)N/C(C(=O)N[C@H](C)C(=O)N[C@@H](C(=O)N[C@H](C(=O)NC(C(=O)N[C@H](CN(C)C)C(C)C)=C(C)C)C(C)C)C(C)C)=C(\C)CC)C(C)(C)O)C(C)(C)O)[C@@H](C)CC)C(C)C)=C(/C)CC	26.8

Prompt: Output measured GI50 for this item: CC/C(C)=C(\NC(=O)[C@H](C)NC(=O)/C(NC(=O)[C@@H](NC(=O)C(C)(C)C(=O)[C@@H](C)CC(C)C)[C@](C)(O)CC)=C(\C)CC)C(=O)N[C@@H](C(=O)N[C@@H](C(=O)N[C@@H](C(=O)N[C@H](C(=O)N/C(C(=O)N[C@H](C)C(=O)N[C@@H](C(=O)N[C@H](C(=O)NC(C(=O)N[C@H](CN(C)C)C(C)C)=C(C)C)C(C)C)C(C)C)=C(\C)CC)C(C)(C)O)C(C)(C)O)[C@@H](C)CC)C(C)C
Completion: 57.4

* * *

System: MCF7
Method Summary: Growth inhibition of human MCF7 cells for 48 hrs by sulforhodamine B assay
Type: functional
Observed Property: GI50 (µM)
Entry rule: numbers only, all in µM.

Study these solved cases before continuing.
Chem Smiles	Value Measured
CC/C(C)=C(\NC(=O)[C@H](C)NC(=O)/C(NC(=O)CNC(=O)C(C)(C)C(=O)[C@@H](C)CC(C)C)=C(/C)CC)C(=O)N[C@@H](C(=O)N[C@@H](C(=O)N[C@@H](C(=O)N[C@H](C(=O)N/C(C(=O)N[C@H](C)C(=O)N[C@@H](C(=O)N[C@H](C(=O)NC(C(=O)N[C@H](CN(C)C)C(C)C)=C(C)C)C(C)C)C(C)C)=C(/C)CC)C(C)(C)O)C(C)(C)O)[C@@H](C)CC)C(C)C	0.0477
CC/C(C)=C(\NC(=O)CNC(=O)C(C)(C)C(=O)[C@@H](C)CC(C)C)C(=O)N[C@@H](C)C(=O)N/C(C(=O)N[C@@H](C(=O)N[C@@H](C(=O)N[C@@H](C(=O)NCC(=O)N/C(C(=O)N[C@H](C)C(=O)N[C@@H](C(=O)N[C@H](C(=O)NC(C(=O)N[C@H](CN(C)C)C(C)C)=C(C)C)C(C)C)C(C)C)=C(\C)CC)C(C)(C)O)[C@@H](C)CC)C(C)C)=C(/C)CC	0.304

Next up:
Prompt: State GI50 (MCF7) of CC/C(C)=C(\NC(=O)[C@@H](NC(=O)[C@H](NC(=O)[C@H](NC(=O)[C@H](NC(=O)/C(NC(=O)[C@H](C)NC(=O)/C(NC(=O)[C@@H](NC(=O)C(C)(C)C(=O)[C@@H](C)CC(C)C)[C@](C)(O)CC)=C(/C)CC)=C(/C)CC)C(C)C)[C@@H](C)CC)C(C)(C)O)C(C)(C)O)C(=O)N[C@H](C)C(=O)N[C@@H](C(=O)N[C@H](C(=O)NC(C(=O)N[C@H](CN(C)C)C(C)C)=C(C)C)C(C)C)C(C)C .
Completion: 0.0254
